# ASSAY_TARGET: IRAK4 enzyme (Homo sapiens (Human), UniProt Q9NWZ3)
# Sequence (Q9NWZ3 whole entry): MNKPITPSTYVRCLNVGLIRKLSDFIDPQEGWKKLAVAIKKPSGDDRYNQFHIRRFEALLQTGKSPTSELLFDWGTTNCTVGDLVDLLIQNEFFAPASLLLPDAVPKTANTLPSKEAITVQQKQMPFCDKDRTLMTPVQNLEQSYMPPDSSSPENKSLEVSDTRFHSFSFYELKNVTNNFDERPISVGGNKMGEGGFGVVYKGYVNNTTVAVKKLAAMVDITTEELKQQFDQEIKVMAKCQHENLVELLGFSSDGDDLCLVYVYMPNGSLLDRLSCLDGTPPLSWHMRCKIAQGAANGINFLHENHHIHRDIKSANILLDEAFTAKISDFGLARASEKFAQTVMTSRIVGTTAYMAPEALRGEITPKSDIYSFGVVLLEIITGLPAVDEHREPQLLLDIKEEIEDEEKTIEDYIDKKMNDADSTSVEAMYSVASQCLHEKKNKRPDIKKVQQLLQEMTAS
# RUN_DESCRIPTION: biochemical
# Assay type: biochemical
# TEST_SETTINGS: IRAK4 enzyme, TR-FRET, 500 μM ATP
// reported IC50 per item

COMPOUND	IC50
CNC(=O)CNC(=O)c1cnc(-c2ccc3cc(C#N)cnn23)cc1NC12CCC(O)(CC1)CC2 [Example 334]	< 1 nM
CC1(C(=O)NC[C@H]2C[C@H](Nc3cc(-c4ccc5cc(C#N)cnn45)ncc3C(=O)NC[C@@H](F)C(C)(C)O)C2)COC1 [Example 873]	< 1 nM
CC(C)(O)[C@H](F)CNC(=O)c1cnc(-c2ccc3cc(C#N)cnn23)cc1NC1CCCCC1 [Example 64]	< 1 nM
CC(C)(O)[C@H](F)CNC(=O)c1cnc(-c2ccc3cc(C#N)cnn23)cc1Nc1ccc(CNC(=O)C2CC2)cc1 [Example 202]	< 1 nM
COC(=O)NC[C@H]1C[C@H](Nc2cc(-c3ccc4cc(C#N)cnn34)ncc2C(=O)NCCC(C)(C)N)C1 [Example 819]	< 1 nM

In the following, a different compound is considered.
Can you look up IC50 on IRAK4 enzyme (Homo sapiens (Human), UniProt Q9NWZ3) for CC(C)(O)[C@H](F)CNC(=O)c1cnc(-c2ccc3cc(C#N)cnn23)cc1NCCCS(C)(=O)=O [Example 103] ?
< 1 nM
